Tested on: OVCAR-5
Experiment: NCI tumour cell line growth inhibition, 48 h
Active and inactive are the calls of the source. Rule as the data show it: active = GI50 up to about 1.1 µM and inactive = higher.
recorded endpoint: GI50

# count of solved cases: 8
[
  {
    "compound": "CCOC(=O)c1cc2c(cn1)[nH]c1cccc(N)c12",
    "GI50": "> 100 µM (inactive)"
  },
  {
    "compound": "CC[C@](O)(C(=O)O)c1cc2n(c(=O)c1CO)Cc1cc3ccccc3nc1-2",
    "GI50": "0.0566 µM (active)"
  },
  {
    "compound": "COc1ccc(C(=O)C(c2ccc(OC)cc2)C2(O)C(=O)Nc3c(Cl)cc(Cl)cc32)cc1 (configuration not stated)",
    "GI50": "20.1 µM (inactive)"
  },
  {
    "compound": "CCOC(=O)CCc1ccc(NC(=O)/C=C/c2ccc([N+](=O)[O-])o2)cc1",
    "GI50": "2.34 µM (inactive)"
  },
  {
    "compound": "COc1cc([C@@H]2c3cc4c(cc3[C@@H](Nc3ccc(Cl)cc3C(=O)c3ccccc3)[C@H]3COC(=O)[C@H]23)OCO4)cc(OC)c1OC",
    "GI50": "0.598 µM (active)"
  },
  {
    "compound": "COC1(OC)C2(Cl)CCC1(Cl)C(OC(C)=O)C2 (configuration not stated)",
    "GI50": "> 100 µM (inactive)"
  },
  {
    "compound": "COC(=O)CSc1cc(Cl)c(C)cc1S(=O)(=O)Nc1n[nH]c(N)n1",
    "GI50": "> 10 µM (inactive)"
  },
  {
    "compound": "CC(C)(C)OC(=O)N1C2CCCC23O[C@@H]1c1cc2c(cc1C3=O)OCO2 (some centres not stated)",
    "GI50": "> 100 µM (inactive)"
  }
]

Provide only the value of recorded GI50 for `CCOc1ccccc1N1C(=O)C(=O)C(c2nc3ccccc3o2)C(=O)C1=O`
> 100 µM (inactive)

Input Cc1ccc(S(=O)(=O)N/N=C(\c2nc3ccc([N+](=O)[O-])cc3[nH]c2=O)C(O)c2ccc([N+](=O)[O-])cc2)cc1 (configuration not stated) , output reported GI50.
67.1 µM (inactive)
